Test system: cholesterol content of serum lipoprotein (VLDL, LDL, HDL)
Assay: Cholesterol content of serum lipoprotein of rats treated orally for 14 days
Type: in vivo
Details: Sprague-Dawley rats, orally 14 days, 20 mg/kg/day; control 1% CMC = 100
// reported LDL cholesterol, Percent of Control for each item listed

CCOC(=O)C1n2c(=O)n(-c3ccccc3)c(=O)n21 [M]	67% of Control
COc1ccc(-n2c(=O)[nH][nH]c2=O)cc1 [F]	78% of Control
CCOC(=O)c1nc(=O)n(-c2ccc(Cl)cc2)c(=O)[nH]1 [O]	78% of Control
CC(=O)n1[nH]c(=O)n(-c2ccccc2)c1=O [A]	74% of Control

// LDL cholesterol, Percent of Control (cholesterol content of serum lipoprotein (VLDL, LDL, HDL)) for CCOC(=O)c1nc(=O)n(-c2ccccc2)c(=O)[nH]1 [Compound N] = 87% of Control

// LDL cholesterol, Percent of Control (cholesterol content of serum lipoprotein (VLDL, LDL, HDL)) for O=c1[nH][nH]c(=O)n1-c1ccc(Cl)cc1 [J] = 43% of Control

Cited source: patent US5034528A
